Test context: rat, in vivo, sc, 50 mg/kg
e = 2'-O-(2-methoxyethyl) (MOE); d = 2'-deoxy (DNA)
// WBC lookup, one value per entry
Measurement kind: WBC

Substance: ISIS 416859: MOE gapmer, nucleobases 1275 to 1318 of SEQ ID NO: 1 (Table 8) (antisense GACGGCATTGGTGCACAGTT; MOE gapmer, wing and gap sizes not given here)
Value observed: 16 10^3/μL

Substance: ISIS 416867: MOE gapmer, nucleobases 1275 to 1318 of SEQ ID NO: 1 (Table 8) (antisense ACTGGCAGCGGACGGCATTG; MOE gapmer, wing and gap sizes not given here)
Value observed: 14 10^3/μL

Substance: ISIS 412225: 5-10-5 MOE gapmer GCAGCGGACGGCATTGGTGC (sugars from the 5' end e5 d10 e5, backbone and methylation of C not given here)
Value observed: 15 10^3/μL

Substance: ISIS 416856: MOE gapmer, nucleobases 1275 to 1318 of SEQ ID NO: 1 (Table 8) (antisense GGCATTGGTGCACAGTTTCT; MOE gapmer, wing and gap sizes not given here)
Value observed: 19 10^3/μL

Substance: ISIS 416852: MOE gapmer, nucleobases 1275 to 1318 of SEQ ID NO: 1 (Table 8) (antisense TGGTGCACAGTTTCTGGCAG; MOE gapmer, wing and gap sizes not given here)
Value observed: 13 10^3/μL

Substance: ISIS 416848: MOE gapmer, nucleobases 1275 to 1318 of SEQ ID NO: 1 (Table 8) (antisense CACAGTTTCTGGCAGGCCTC; MOE gapmer, wing and gap sizes not given here)
Value observed: 17 10^3/μL

Substance: ISIS 416863: MOE gapmer, nucleobases 1275 to 1318 of SEQ ID NO: 1 (Table 8) (antisense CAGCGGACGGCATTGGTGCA; MOE gapmer, wing and gap sizes not given here)
Value observed: 17 10^3/μL

Substance: ISIS 412223: 5-10-5 MOE gapmer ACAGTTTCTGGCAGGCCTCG (sugars from the 5' end e5 d10 e5, backbone and methylation of C not given here)
Value observed: 20 10^3/μL

Substance: ISIS 416861: MOE gapmer, nucleobases 1275 to 1318 of SEQ ID NO: 1 (Table 8) (antisense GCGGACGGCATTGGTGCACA; MOE gapmer, wing and gap sizes not given here)
Value observed: 15 10^3/μL
